Test system: HeLa
assay.text: Cytotoxicity against human HeLa cells
Type: functional, cell-based
Exercise: for every item that follows, state its recorded pIC50.
// pIC50: -log10(molar conc.)

Q) Give pIC50 for `CC(=O)Nc1nc2ccc(NC(=O)Cc3c[nH]c4ccccc34)cc2s1` tested on HeLa.
A) 4.32

Q) Give pIC50 for `CC1=C(C(=O)Nc2nc(-c3ccccc3)cs2)C(c2ccc([N+](=O)[O-])cc2)C(C(=O)Nc2nc(-c3ccccc3)cs2)=C(C)N1` tested on HeLa.
A) 8.52

Q) Give pIC50 for `CC1=C(C(=O)Nc2nc(-c3ccccc3)cs2)C(c2ccc(Cl)cc2)C(C(=O)Nc2nc(-c3ccccc3)cs2)=C(C)N1` tested on HeLa.
A) 8.70

Q) Give pIC50 for `CC(=O)Nc1nc2ccc(NS(=O)(=O)c3ccc(C4CCCCC4)cc3)cc2s1` tested on HeLa.
A) 4.36

* * *

Test system: SMMC-7721
assay.text: Cytotoxicity against human SMMC-7721 cells
Type: functional, cell-based
outcome.measure: pIC50
// pIC50: -log10(molar conc.)

Q) In one line, give reported pIC50 of the entry Cc1nc(N2N=C(c3cccs3)CC2c2ccc(C3CC(c4cccs4)=NN3c3nc(C)c(/N=N/c4ccc([N+](=O)[O-])cc4)s3)cc2)sc1/N=N/c1ccc([N+](=O)[O-])cc1 (stereo not given) .
A) 5.52

Q) In one line, give reported pIC50 of the entry `Nc1nc(-c2ccc(Oc3ccc(Cl)cc3)cc2)cs1` .
A) 5.79

Q) In one line, give reported pIC50 of the entry `CCOC(=O)/C(C(C)=O)=C1/SC=C(n2c(CC#N)nc3ccccc32)N1c1ccccc1` .
A) 6.64

Q) In one line, give reported pIC50 of the entry `CC(=O)C(C(C)=O)=C1SC=C(n2c(CC#N)nc3ccccc32)N1c1ccccc1` .
A) 6.60

Q) In one line, give reported pIC50 of the entry `COc1cccc2c1C(=O)c1c(O)c3c(c(O)c1C2=O)C[C@@](O)(C(=O)CO)C[C@@H]3O[C@H]1C[C@H](N)[C@H](O)[C@H](C)O1` .
A) 6.64

* * *

Exercise: for every item that follows, state its recorded IC50.
System: MCF7
assay.text: Antitumor activity against human MCF7 cells
Assay type: functional, cell-based
Kindly provide the numeric value in nM only, without the unit symbol.

Q) In one line, give reported IC50 of the entry `O=C1N/C(=N/c2ccc(-c3nc4ccccc4s3)cc2)S/C1=C/c1ccc([N+](=O)[O-])cc1` .
A) 48

Q) In one line, give reported IC50 of the entry `C/C(=N/Nc1nc(C)c(/N=N/c2ccccc2)s1)c1nnn(-c2ccccc2)c1C` .
A) 1120

Q) In one line, give reported IC50 of the entry `O=C1N/C(=N/c2ccc(-c3nc4ccccc4o3)cc2)S/C1=C/c1ccc(Cl)cc1` .
A) 19

* * *

Test system: NCI-H460
assay.text: Antitumor activity against human NCI-H460 cells
Assay type: functional, cell-based
outcome.measure: pIC50
// pIC50: -log10(molar conc.)

Q) In one line, give reported pIC50 of the entry `CCn1c(=O)/c(=C2\Sc3ccccc3N2C)s/c1=C\c1cccc[n+]1CC` .
A) 5.89

Q) In one line, give reported pIC50 of the entry `CCN1C(=O)/C(=C2\Sc3ccccc3N2C)S/C1=N\[n+]1cccc2ccccc21.[I-]` .
A) 8.22
